Quick reference for melting point among some molecules

The examples below pair each entry with its known result.
O=C(Nc1cccc2ccccc12)N(CCCN1CCC(Cc2ccccc2)CC1)c1ccccc1 = 124 to 127 °C
CN(C(=O)Nc1nc(OCC(F)(F)F)cc(OCC(F)(F)F)n1)c1ccc(Br)cc1 = 110 to 111 °C
CC(=O)OCC1OC(n2ccnc2[N+](=O)[O-])CC1OC(C)=O (stereo not drawn) = 155 °C

Let us move to another entry and its melting point.
Q: # query: melting point of entry CCOC(=O)NCC(CC)C(NC(=O)OCC)NC(=O)OCC (stereo not drawn)
Result: 120 to 122 °C

----------
Overview of recorded melting point for various compounds

See these solved cases before continuing.
Cc1occc(=O)c1OC(=O)c1ccccc1 = 106 to 110 °C
O=C(On1nnc2ccc(Cl)cc21)c1ccccc1 = 132 °C
CCCCN(C1CCCOc2ccccc21)S(C)(=O)=O (configuration not stated) = 78 to 79 °C
CCOC(=O)C(=CNc1cc(O)cc(O)c1)C(=O)OCC = 190 to 192 °C
CCOC(=O)C=Nc1cc(Cl)ccc1C(=O)O = 166 to 167 °C
O=C(O)C(F)(F)c1cccc(OCc2ccccc2Cl)c1OCc1ccccc1Cl = 55 to 57 °C

Please look at the following compound next.
Q: Any idea what melting point was measured for N#Cc1c(N)n[nH]c1-c1ccc(Oc2ccccc2)cc1 ?
Result: 187 to 188 °C
